Biological target: VLA4 (Homo sapiens, UniProt P05556+P13612)
Construct: endogenous in cells; host or cells: Ramos cells
Sequence (P13612 34-1032): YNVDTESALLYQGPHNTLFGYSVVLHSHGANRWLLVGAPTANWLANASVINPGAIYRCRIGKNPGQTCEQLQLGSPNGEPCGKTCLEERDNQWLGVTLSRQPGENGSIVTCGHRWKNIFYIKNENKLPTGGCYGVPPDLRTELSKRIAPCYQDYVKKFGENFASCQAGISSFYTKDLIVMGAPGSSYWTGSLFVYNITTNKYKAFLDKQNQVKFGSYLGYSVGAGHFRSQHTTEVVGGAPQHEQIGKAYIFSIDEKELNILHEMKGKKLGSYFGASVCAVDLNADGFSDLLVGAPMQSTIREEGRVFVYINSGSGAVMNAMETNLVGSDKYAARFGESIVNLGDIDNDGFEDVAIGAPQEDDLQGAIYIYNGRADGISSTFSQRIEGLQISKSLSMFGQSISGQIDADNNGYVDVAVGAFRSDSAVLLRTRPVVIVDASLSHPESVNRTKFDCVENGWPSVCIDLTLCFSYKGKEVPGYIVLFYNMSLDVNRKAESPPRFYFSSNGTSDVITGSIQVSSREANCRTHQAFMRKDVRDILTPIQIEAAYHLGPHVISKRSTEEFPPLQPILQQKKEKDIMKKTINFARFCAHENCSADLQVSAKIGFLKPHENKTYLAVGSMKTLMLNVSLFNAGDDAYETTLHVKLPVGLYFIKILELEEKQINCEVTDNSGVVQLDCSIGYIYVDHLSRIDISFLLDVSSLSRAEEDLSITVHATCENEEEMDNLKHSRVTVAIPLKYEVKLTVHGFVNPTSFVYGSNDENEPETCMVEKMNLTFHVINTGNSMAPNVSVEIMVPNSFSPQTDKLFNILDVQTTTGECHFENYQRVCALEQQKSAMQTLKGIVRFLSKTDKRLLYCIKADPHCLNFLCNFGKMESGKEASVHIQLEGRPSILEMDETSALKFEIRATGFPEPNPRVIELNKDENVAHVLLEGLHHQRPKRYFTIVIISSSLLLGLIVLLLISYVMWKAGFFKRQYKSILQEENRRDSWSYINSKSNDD
Sequence (P05556 21-798): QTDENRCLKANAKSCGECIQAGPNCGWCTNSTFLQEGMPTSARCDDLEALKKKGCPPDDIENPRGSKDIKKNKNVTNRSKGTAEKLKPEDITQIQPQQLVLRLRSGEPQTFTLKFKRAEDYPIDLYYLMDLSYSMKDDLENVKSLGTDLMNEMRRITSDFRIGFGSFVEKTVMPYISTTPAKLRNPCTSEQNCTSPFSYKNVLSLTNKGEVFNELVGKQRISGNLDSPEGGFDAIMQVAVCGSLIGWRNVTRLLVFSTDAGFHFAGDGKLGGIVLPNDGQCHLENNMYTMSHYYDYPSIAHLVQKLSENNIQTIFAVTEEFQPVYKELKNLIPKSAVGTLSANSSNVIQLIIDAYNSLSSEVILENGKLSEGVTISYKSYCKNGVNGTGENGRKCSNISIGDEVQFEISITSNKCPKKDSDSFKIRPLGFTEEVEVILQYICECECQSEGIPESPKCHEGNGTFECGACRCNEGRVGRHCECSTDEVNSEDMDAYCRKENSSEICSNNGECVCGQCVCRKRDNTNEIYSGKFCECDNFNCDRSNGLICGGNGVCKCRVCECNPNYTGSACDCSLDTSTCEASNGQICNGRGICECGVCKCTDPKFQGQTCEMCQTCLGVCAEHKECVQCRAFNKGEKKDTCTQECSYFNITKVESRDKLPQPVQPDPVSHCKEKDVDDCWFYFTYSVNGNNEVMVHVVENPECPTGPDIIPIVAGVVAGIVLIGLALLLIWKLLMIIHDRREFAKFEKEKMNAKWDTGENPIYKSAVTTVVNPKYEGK
Assay: Inhibition of VLA4-dependent adhesion of Ramos cells to BSA-CS1
Format: cell-based
Settings: Ramos cells, BSA-CS1 coated wells, 2 mM MnCl2, 30 minutes at room temperature; read-out: IC50
pIC50: −log10 of the molar value. Numbered stars: 1 amine (or outer) side, 2 acyl side, 3 side chain; on linkers, the order of the positions; unused ones are H or OH. Square brackets hold non-standard residues; d marks the D form. Peptide text beside a SMILES is read from it. * marks the point of attachment. X2 = O=C(Cc1ccc(N[*:1])cc1)[*:2]; CO = O=C([*:1])[*:2]; NHPh = c1ccc(N*)cc1; NHiPr = CC(C)N*
Some molecules, each annotated with its measured pIC50.

Previously resolved entries follow.
CC(C)C[C@H](NC(=O)c1cc2ccccc2cn1)C(=O)N[C@@H](CC(=O)O)C(=O)N[C@H](C(=O)N1CCC[C@H]1C(=O)O)C(C)C = < 5.00
CC(C)C[C@H](NC(=O)Cc1ccc(NC(=O)Nc2ccccc2)cc1)C(=O)N[C@@H](CC(=O)O)C(=O)N[C@H](C(=O)N1CCC[C@H]1C(=O)NC(C)C)C(C)C [Compound 327] ({NHPh-CO}-[X2]LDVP-NHiPr) = > 7.30

Query CCC(C)C(NC(=O)CCc1ccc(O)cc1)C(=O)NC(CC(=O)O)C(=O)NCC(C)C (stereo not drawn) yields pIC50 of < 5.00
